assay: Components of the Cytosolic LPS Sensing Pathway: Gene Identification via Genome-wide siRNA Screen; details: RAW264.7 macrophages, IL-1a HTRF, actives lie on both sides, screened at 100 nM (by protocol), cells primed 5 h with Pam3CSK4 first
About 3,700 (7%) of roughly 53,000 sequences were called active.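 How the source made its calls: active means gene knockdowns whose robust z-score for IL-1 alpha signal is at least 2 or at most -2, so actives lie on both sides; inactive means the rest.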 Only a selection was taken, and actives are over-represented in it overall.
Labels: YES = active, NO = inactive

SEQUENCE DATA	CATEGORY
GCAAUGUUCUCCGUAAACATT against Acss2	NO
GCUGGAACUUAGUGUUCAGTT against Kat6b	NO
CGACCAAAAUCAAAACAGCTT against Defb12	NO
GCAGAUCAAUGGAUUCACCTT against Olfr57	NO
CGGCUCAUCCGAUAUAUCCTT against Hcn2	NO
GGUCCUGGACAAAGUGUUUTT against Tubgcp5	YES
GGAGCUGUGCAAGAGGAAATT against Wnt16	NO
GCACGUGGAUCCUAACAAGTT against Exd1	NO
GAUACUUGGCUCCUAGAAGTT against Olfr803	NO
GGUGGAUUUUGAAACUAUUTT against Pcdhb17	NO
GCGACUCCCACAUACUCAGTT against Muc19	NO
GGGCUUUCUCAGAAAAGAATT against Olfr508	NO
GGGCUUUGUGCCCAACAUGTT against Rtcb	NO
CGACCUGUUCGCCAUCAAATT against Scaf1	NO
GCUUUUUGAGUCUGAUUUATT against Dmgdh	NO
CCUGUUAAUGACACCCACGTT against Slc37a2	NO
CCAUAAAAACCAGAGAAAUTT against Plekhf2	NO
UUUAUACUUCCCUGAUUUUTT against Olfr943	NO
GGCCAUUAACCAGUCUAUCTT against Cdhr5	NO
GGCACAGUUCUGGAAGAUGTT against Qtrt1	NO
GGAGUGUUACUAGAUGUCCTT against Spns3	NO
GGCACUGUAAAUGUACUCATT against Rbak	YES
CCGAGAACAGUUGAAGAAGTT against Srbd1	NO
GCGCAGAUAUCCUGGUUUGTT against Dhx36	YES
GCUGCACGAUCGGAAUGGUTT against Ssh1	NO
